Test system: HCC1954
Run description: Anchorage independent soft agar tumor growth assay
Type: cell-based
Assay setup: Homo sapiens, 144 h; HCC1954 breast carcinoma; PTEN Wild-type, Protein; 6-day incubation, Alamar Blue; read-out: Compound EC50 (nM) ± StDev
Quantity: EC50

Molecule	Target or system	Quantity	Measured result
Cc1c(Cn2c(C)nc3c(C(=O)O)cc(N4CCOCC4)cc32)cccc1C(F)(F)F [Example 31]	HCC1954	EC50	> 30700 nM

###

Tested on: CHL-1
Run description: Anchorage independent soft agar tumor growth assay
Assay type: cell-based
Assay setup: Homo sapiens, 144 h; CHL-1 skin melanoma; PTEN Wild-type, Protein; 6-day incubation, Alamar Blue; read-out: Compound EC50 (nM) ± StDev

Structure as smiles	Target or system	Units symbol	EC50
Cc1c(Cn2c(C)nc3c(C(=O)O)cc(N4CCOCC4)cc32)cccc1C(F)(F)F	CHL-1	nM	14

###

System: Colo205
Run description: Anchorage independent soft agar tumor growth assay
Format: cell-based
Assay setup: Homo sapiens, COLO 205, 144 h; Colo205 colon carcinoma; PTEN Wild-type; 6-day incubation, Alamar Blue; read-out: Compound EC50 (nM) ± StDev

Structure as smiles	EC50
Cc1c(Cn2c(C)nc3c(C(=O)O)cc(N4CCOCC4)cc32)cccc1C(F)(F)F	> 30700 nM

###

Test system: SW1783
Run description: Anchorage independent soft agar tumor growth assay
Format: cell-based
Assay setup: Homo sapiens, 144 h; SW1783 CNS glioblastoma; PTEN p.R233*, No protein; 6-day incubation, Alamar Blue; read-out: Compound EC50 (nM) ± StDev
Quantity: EC50 (nM)

Structure as smiles	Measured result
Cc1c(Cn2c(C)nc3c(C(=O)O)cc(N4CCOCC4)cc32)cccc1C(F)(F)F	10

###

Test system: LOXIMVI
Run description: Anchorage independent soft agar tumor growth assay
Format: cell-based
Assay setup: Homo sapiens, LOX IMVI, 144 h; LOXIMVI skin melanoma; PTEN Wild-type, Protein; 6-day incubation, Alamar Blue; read-out: Compound EC50 (nM) ± StDev
Quantity: EC50

Structure as smiles	Target or system	Measured result
Cc1c(Cn2c(C)nc3c(C(=O)O)cc(N4CCOCC4)cc32)cccc1C(F)(F)F	LOXIMVI	> 30700 nM

###

Tested on: SW1088
Run description: Anchorage independent soft agar tumor growth assay
Format: cell-based
Assay setup: Homo sapiens, 144 h; SW1088 CNS glioblastoma; PTEN Loss, No protein; 6-day incubation, Alamar Blue; read-out: Compound EC50 (nM) ± StDev
Quantity: EC50 (nM)

Structure as smiles	Measured result
Cc1c(Cn2c(C)nc3c(C(=O)O)cc(N4CCOCC4)cc32)cccc1C(F)(F)F	12

###

Test system: UACC-62
Run description: Anchorage independent soft agar tumor growth assay
Assay type: cell-based
Assay setup: Homo sapiens, 144 h; UACC-62 skin melanoma; PTEN p.P248fs*5, No protein; 6-day incubation, Alamar Blue; read-out: Compound EC50 (nM) ± StDev
Protocol: Cellular Assays—Cell Growth Inhibition Assay in PTEN Wild-Type or PTEN Deficient Tumor Cell Lines Twenty-two Phosphatase and Tensin Homolog (PTEN) wild-type or PTEN deficient tumor cell lines were cultured generally according to instructions supplied by cell culture supplier American Type Culture Collection, Manassas, Va., with 10% fetal bovine serum at 5% CO2 and 37° C. […]
Quantity: EC50 (nM)

Structure as smiles	Units symbol	Measured result
Cc1c(Cn2c(C)nc3c(C(=O)O)cc(N4CCOCC4)cc32)cccc1C(F)(F)F	nM	23

Every entry's value here was drawn from patent US10660898B2.
